# system.tested: Corticotropin-releasing factor receptor 2/Corticotropin-releasing factor-binding protein (Homo sapiens, UniProt P24387+Q13324)
# Sequence (Q13324 whole entry): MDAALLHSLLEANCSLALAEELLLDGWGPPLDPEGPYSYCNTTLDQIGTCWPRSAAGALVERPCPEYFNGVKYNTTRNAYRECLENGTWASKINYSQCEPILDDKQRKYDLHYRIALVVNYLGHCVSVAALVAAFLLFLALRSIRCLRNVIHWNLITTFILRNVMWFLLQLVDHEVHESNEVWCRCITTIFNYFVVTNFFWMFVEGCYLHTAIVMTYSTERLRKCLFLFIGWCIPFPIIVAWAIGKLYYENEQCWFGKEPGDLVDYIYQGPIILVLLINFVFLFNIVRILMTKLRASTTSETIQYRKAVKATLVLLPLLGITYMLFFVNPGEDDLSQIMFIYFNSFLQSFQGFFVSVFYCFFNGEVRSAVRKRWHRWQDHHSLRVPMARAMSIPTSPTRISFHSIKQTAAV
# Sequence (P24387 whole entry): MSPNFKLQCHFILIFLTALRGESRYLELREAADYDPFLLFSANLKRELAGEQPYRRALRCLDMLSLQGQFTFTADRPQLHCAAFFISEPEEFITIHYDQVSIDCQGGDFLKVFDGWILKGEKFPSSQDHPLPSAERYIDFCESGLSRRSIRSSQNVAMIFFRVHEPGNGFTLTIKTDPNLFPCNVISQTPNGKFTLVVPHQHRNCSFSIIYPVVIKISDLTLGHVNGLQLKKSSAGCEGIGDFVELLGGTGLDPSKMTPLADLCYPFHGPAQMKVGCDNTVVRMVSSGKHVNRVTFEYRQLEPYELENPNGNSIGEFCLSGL
# assay.remarks: activators of CRF receptor 2 with binding protein – uHTS hits, confirmation (AID 602473)
# Assay type: functional
# condition.details: read-out: EC50_Mean
The source made the active and inactive calls.
Outcome codes: 1 (active), 0 (inactive)

>>> print(df.to_string())
                                   compound  assigned_label
0           CSc1ccccc1NC(=O)c1cc(CC(C)C)on1               0
1  CC1(Cc2ccc3c(c2)OCO3)NC(=O)NC1=O (stereo not given)               0
2  CC(C)(C)N1CC2([N+](=O)[O-])CN(C(C)(C)C)CC([N+](=O)[O-])(C1)C2               1
3  COc1ccc(Cl)cc1C(=O)NNC(=O)COC(=O)c1cccs1               0
4  Cc1cc([N+](=O)[O-])c2ccccc2c1NS(=O)(=O)c1ccccc1               0

====

# system.tested: Cytochrome P450 3A4 (Homo sapiens);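 also: CYP3A4 tested as one member of a cytochrome P450 panel screen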
# Sequence (P08684 whole entry): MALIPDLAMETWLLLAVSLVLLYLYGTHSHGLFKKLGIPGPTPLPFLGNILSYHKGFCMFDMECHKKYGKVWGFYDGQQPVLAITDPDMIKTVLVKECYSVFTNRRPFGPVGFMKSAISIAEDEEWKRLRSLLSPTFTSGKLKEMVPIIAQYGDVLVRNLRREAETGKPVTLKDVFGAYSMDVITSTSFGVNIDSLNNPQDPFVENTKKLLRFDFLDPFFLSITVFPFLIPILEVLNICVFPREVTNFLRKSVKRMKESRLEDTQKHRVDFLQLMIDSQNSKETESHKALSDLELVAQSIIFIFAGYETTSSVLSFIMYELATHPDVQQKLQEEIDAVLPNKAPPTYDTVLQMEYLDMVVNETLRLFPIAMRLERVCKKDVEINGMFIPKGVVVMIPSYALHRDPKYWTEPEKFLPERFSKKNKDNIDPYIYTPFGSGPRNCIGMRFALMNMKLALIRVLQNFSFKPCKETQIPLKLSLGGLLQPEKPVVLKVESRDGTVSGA
Catalogue of AC50 values
parameter: AC50

>>> df
                                    compound                  result
 0     Cc1cc(CSc2ccccc2)ccc1NC(=O)COc1ccccc1  12.6 µM (inconclusive)
 1  COc1ccc(-n2c(=O)c(C)nc3cnc(N4CCNCC4)nc32)cc1  25.1 µM (inconclusive)
 2         Cc1nnc(SCC(=O)NCC2CCCCC2)n(N)c1=O  25.1 µM (inconclusive)
 3  COc1ccc(CCNC(=O)Cn2c(=O)oc3ccccc32)cc1OC  22.4 µM (inconclusive)
 4  Cc1ccc(C2C(C(=O)c3ccccc3)=C(O)C(=O)N2CCN2CCOCC2)o1 (stereo unspecified)  25.1 µM (inconclusive)
 5  COc1ccc(-n2c(=O)c(-c3cn(C)c4ccccc34)nc3cnc(N4CCNCC4)nc32)cc1    20 µM (inconclusive)
 6            COc1cccc(OC)c1C(=O)Nc1cc(C)on1    20 µM (inconclusive)
 7       Clc1ccccc1-c1ccc2ncnc(N3CCNCC3)c2c1  25.1 µM (inconclusive)
 8             Cc1ccc(NC(S)=NCCN2CCOCC2)cc1C  15.8 µM (inconclusive)
 9  COc1ccc(Oc2ncc3nc(CCc4ccccc4)c(=O)n(C4CC4)c3n2)cc1  5.01 µM (inconclusive)
10  CC[C@H]1CC[C@H]2[C@@H]3CC=C4C[C@H](OC(C)=O)[C@@H](N)C[C@@]4(C)[C@H]3CC[C@@]12C  2.51 µM (inconclusive)

====

EC50: recorded values
# system.tested: Heat shock factor protein 1 (Mus musculus, UniProt P38532)
# Sequence (P38532 whole entry): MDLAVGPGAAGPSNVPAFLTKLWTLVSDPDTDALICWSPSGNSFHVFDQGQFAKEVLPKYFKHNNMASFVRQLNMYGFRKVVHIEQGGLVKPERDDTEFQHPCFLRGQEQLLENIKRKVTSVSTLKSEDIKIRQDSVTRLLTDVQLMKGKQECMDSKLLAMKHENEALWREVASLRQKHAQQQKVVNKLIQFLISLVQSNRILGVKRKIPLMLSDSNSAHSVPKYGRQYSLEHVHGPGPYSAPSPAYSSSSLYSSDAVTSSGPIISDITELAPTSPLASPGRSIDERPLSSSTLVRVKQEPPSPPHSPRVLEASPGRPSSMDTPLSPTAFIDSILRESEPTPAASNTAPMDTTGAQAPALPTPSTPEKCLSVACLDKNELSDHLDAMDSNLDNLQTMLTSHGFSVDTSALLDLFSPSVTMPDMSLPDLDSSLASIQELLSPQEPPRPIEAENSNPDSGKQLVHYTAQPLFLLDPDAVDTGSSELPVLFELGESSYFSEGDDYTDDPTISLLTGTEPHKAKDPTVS
# assay.remarks: inhibition of MG132-induced HSE-luciferase signal, confirmation, cell-based, NIH3T3, luminescence, dose retest (AID 2382);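 also: NIH3T3 fibroblasts with HSF1-driven luciferase reporter stressed by proteasome inhibitor MG132; luminescence from HSF1-driven luciferase expression after 8 hours of MG132 stress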
# Type: functional
The source made the active and inactive calls.
parameter: EC50

>>> print(df.to_string())
                            molecule_smiles  parameter                 result
0  CCOc1ccc(NC(=O)CCCNC(=O)Cn2cnc3sc(C)c(C)c3c2=O)cc1       EC50  > 195 µM (not active)
1                CC(=O)Nc1ccc(Cc2ccncc2)cc1       EC50  > 195 µM (not active)
2  CC(C)(C)C(=O)NC(=S)NNC(=O)c1sc2ccccc2c1Cl       EC50       3.06 µM (active)
3    OC1(c2ccc(Br)cc2)CCN(Cc2cccc(Br)c2)CC1       EC50  > 195 µM (not active)
4         COc1ccc(NC(=O)c2cccnc2)cc1OCC(C)C       EC50  > 195 µM (not active)
5  CCN(CC)S(=O)(=O)c1ccc2c(c1)c(=O)c(C(=O)NCc1ccco1)cn2C       EC50  > 195 µM (not active)
